Value source: patent US20250270341A1

Please respond with reported OD450 for every item in the list.
Biological target: T1, Human TfR-AVI-His (control) (human, UniProt P02786 89-760)
T1 construct: control protein; also called Avi-His-tagged human TfR; human transferrin receptor
T1 sequence (P02786 89-760 limits assumed): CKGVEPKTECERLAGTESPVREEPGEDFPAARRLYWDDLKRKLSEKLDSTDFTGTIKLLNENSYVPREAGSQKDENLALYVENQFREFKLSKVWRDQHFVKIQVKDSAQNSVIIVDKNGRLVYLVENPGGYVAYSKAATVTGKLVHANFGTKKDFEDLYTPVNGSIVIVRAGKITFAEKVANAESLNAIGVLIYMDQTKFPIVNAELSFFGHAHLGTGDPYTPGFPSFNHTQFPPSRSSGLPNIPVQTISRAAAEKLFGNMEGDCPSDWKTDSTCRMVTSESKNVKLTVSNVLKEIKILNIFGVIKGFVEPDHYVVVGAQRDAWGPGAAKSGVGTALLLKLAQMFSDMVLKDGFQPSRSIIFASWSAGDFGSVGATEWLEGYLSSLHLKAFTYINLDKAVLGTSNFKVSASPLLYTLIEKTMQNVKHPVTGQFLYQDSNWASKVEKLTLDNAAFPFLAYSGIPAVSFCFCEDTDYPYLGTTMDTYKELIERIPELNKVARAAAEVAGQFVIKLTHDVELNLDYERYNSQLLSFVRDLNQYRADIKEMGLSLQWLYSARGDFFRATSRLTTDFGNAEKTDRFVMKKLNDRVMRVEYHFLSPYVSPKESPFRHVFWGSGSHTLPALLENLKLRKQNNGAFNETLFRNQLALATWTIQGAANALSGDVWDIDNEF
Assay: ELISA, hybridoma supernatant
Numbers only.

Below, 2 binders whose answers are already recorded.
CD98HC.04.012 (antibody, V domains shown, hybridoma IgG) VH: QVQLQQSGADLVRPGDSVKISCKGSGYTFTDNTLHWVKQSHAKSLEWIGVISPYYGDASYNQKFKGKATMTVDKSSSTAYMELARLTSEDSAIYYCARVGGRLRLGYYFDHWGQGTTLTVSS VL: NIMMTQSPSSLAVSAGEKVTMNCKSSQSVLSSSNQKNYLAWYQQKPGQSPKLLIYWASTRESGVPARFTGSGSGTDFSLTITSVQAEDLAVYYCLQYLSSYTFGGGTKLEIK : 0.074
CD98HC.04.009 (antibody, V domains shown, hybridoma IgG) VH: QVQLKESGPGLVAPSQSLSITCTVSGFSLTSYGVHWVRQPPGKGLEWLGVIWAGGSTYYNSALMSRLSISKDNAKSQVLLKMSSLQTDDTAMYYCARDNYGGVYLDVWGAGTTVTVSS VL: ENVLTQSPASMSASPGEKVTMTCRASSSVSSSYLHWYQQKSGASPKLWIYSTSNLASGVPARFSGSGSGTSYSLTISSVEAEDAATYYCQQYSGYPLTFGSGTKLEIK : 0.0743

Now let's try a different one.
// CD98HC.03.004 (antibody, V domains shown, hybridoma IgG) VH: DVQLQESGPGLVKPSQSLSLTCTVTGYSITNNYAWNWIRRFPGNKLEWMAYISYSGYTSYNPSLKSRISITRDTSKNQFFLQLNSVTTEDTATYYCTGYFYYYGGGSFDYWGQGTTLTVSS VL: QAVVTQESALTTSPGETVTLTCRSSTGAVTTSNFANWVQEKPDHLFTGLIRGSNNRAPGVPARFSGSLIGDKAALTITGARTEDEAIYFCALWYSDHWVFGGGTKLTVL : OD450 value = 0.0905
